- Tested on: SF-268
- procedureDetails: NCI tumour cell line growth inhibition, 48 h
The source made the active and inactive calls. Rule as the data show it: active = GI50 up to about 1.1 µM and inactive = higher.
Assign a class; possible classes are active, inactive

Examples from the recorded data:
compound	assignedCategory
CC(C)C(=O)N1C(=O)O[C@@H](c2ccccc2)[C@H]1C	inactive
c1ccc(Nc2nnc(CCCCCCCCc3nnc(Nc4ccccc4)o3)o2)cc1	inactive
CC1(C)[C@@H]2C[C@H]1c1cnc(-c3ccccn3)cc1C2CCCCC[C@@H]1c2cc(-c3ccccn3)ncc2[C@@H]2C[C@H]1C2(C)C (stereo partly drawn)	active
CC#CC(=O)Nc1ccccc1CC(c1c[nH]c2ccccc12)c1c[nH]c2ccccc12	inactive
COc1cc(C(C)=O)cc(C(=O)N(C(C)C)C(C)C)c1[Si](C)(C)C	inactive
CC(=O)Oc1cc2c(cc1OC(C)=O)[C@H]1CC[C@]3(C)[C@@H](OC(C)=O)CC[C@H]3[C@@H]1CC2	inactive

### Prompt Hello, I am checking results. What call was entered for `CCOC(=O)CC[C@@H](NC(=O)c1ccc(NCc2ccc3nc(OC)c(OC)nc3c2)cc1)C(=O)OCC` ?
### Response inactive

### Prompt Hello, I am checking results. What call was entered for CCCCCC(/C=C/C1CCC(=O)C1)OCOCCOC (stereo not drawn) ?
### Response inactive

### Prompt Hello, I am checking results. What call was entered for `Cc1ccc2c(=O)[nH]sc2c1` ?
### Response inactive

### Prompt Hello, I am checking results. What call was entered for `Cn1ncc(=S)[nH]c1=S` ?
### Response inactive

### Prompt Hello, I am checking results. What call was entered for CC(=O)C1CCN(c2ccccc2)C1 (stereo not drawn) ?
### Response inactive

Origin of values: ChEMBL document CHEMBL1201862
